All values here come from paper PMC7819943.

# maps each entry to its binding signal
Biological target: OsSMF1 (Oryza sativa, UniProt Q6ZLB0 1-436)
Sequence: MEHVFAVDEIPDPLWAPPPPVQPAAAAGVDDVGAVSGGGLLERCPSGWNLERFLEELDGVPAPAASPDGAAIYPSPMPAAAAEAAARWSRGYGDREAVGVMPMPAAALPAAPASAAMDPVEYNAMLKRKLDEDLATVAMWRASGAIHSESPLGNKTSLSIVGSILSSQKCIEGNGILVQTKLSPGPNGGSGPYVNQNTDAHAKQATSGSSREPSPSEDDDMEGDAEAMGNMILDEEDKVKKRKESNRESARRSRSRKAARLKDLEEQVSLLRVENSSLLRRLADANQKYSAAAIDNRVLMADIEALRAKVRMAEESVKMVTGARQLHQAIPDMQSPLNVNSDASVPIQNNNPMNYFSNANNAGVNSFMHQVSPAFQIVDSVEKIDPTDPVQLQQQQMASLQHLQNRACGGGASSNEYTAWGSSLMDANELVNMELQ
Assay: protein-binding microarray (RPBM); PBS, 2% BSA, 51.3 ng/ul salmon testes DNA, 50 uM zinc acetate, 200 nM TF, 25 C, 1 h; high values mean tight binding
Conditions: protein: recombinant; tags: N-terminal polyhistidine and DsRed monomer fusion (pET32a); chain copies: 2; label: CyDye5-dUTP incorporated in the synthesized complementary strand; 3' TTTTT single-stranded linker to array surface; dsDNA, one strand shown
In all, about 39,000 sequences were measured (“fluorescence intensity (a.u.)”: median about 4,300, highest 2% from about 39,000 on). The sample as a whole holds a higher share of the highest values than the screen did.

Reference set, count: 5
TCCACCTGGGTTCAAATCCTAGATTTGACACGGGTGCTCGCGGAGTCACCTAGTGCAG: 4830 fluorescence intensity (a.u.)
AAGGGCAGCTCAGTCATGGCTGCCACGAGGACAGATGTGGCGGAGTCACCTAGTGCAG: 4760 fluorescence intensity (a.u.)
CATAGATCTTTTGACTAGGTTTTCGTTCCACGTGGCATCACGGAGTCACCTAGTGCAG: 12900 fluorescence intensity (a.u.)
GTTGAATTCTGTGCGTGTAAGCAGACCTGCATTGCCGTCGCGGAGTCACCTAGTGCAG: 3170 fluorescence intensity (a.u.)
ATTGATCACTCGGACGTCACCAAACGATCGATAAACTCGTCGGAGTCACCTAGTGCAG: 5630 fluorescence intensity (a.u.)

Req: Consider the sequence CTTGTCGCATCTGAACGTGTCGAGTCACACCTGTGTGTTACGGAGTCACCTAGTGCAG and give its recorded binding signal.
Resp: 8330 fluorescence intensity (a.u.)

Req: Consider the sequence ACCTTGTACTTTTGTCTACATATGTGTCATTCTATCTTGGCGGAGTCACCTAGTGCAG and give its recorded binding signal.
Resp: 5120 fluorescence intensity (a.u.)

Req: Consider the sequence AGCTTCGGAGGCTGTACACGTAATGTGGTCGCTTGTTTGTCGGAGTCACCTAGTGCAG and give its recorded binding signal.
Resp: 9220 fluorescence intensity (a.u.)

Req: Consider the sequence GCATGCGGGATAGGAGCTTGACTAGCATGACGAGGCAGAACGGAGTCACCTAGTGCAG and give its recorded binding signal.
Resp: 5890 fluorescence intensity (a.u.)

Req: Consider the sequence CACCCGTGCGTAATCATGACGCCGGGGTGACGTCACCATCCGGAGTCACCTAGTGCAG and give its recorded binding signal.
Resp: 30200 fluorescence intensity (a.u.)

Req: Consider the sequence CCGGAAAATCTATCTGTGCTTATAAATAGCCATTATCCAACGGAGTCACCTAGTGCAG and give its recorded binding signal.
Resp: 57400 fluorescence intensity (a.u.)

Req: Consider the sequence CACCGCTACCTACGTTGTCGCCACCCACGTCAATAATCCTCGGAGTCACCTAGTGCAG and give its recorded binding signal.
Resp: 6310 fluorescence intensity (a.u.)

Req: Consider the sequence TGGCCCAACACATCAACGTTACATCACGGGCTTTAACGTTCGGAGTCACCTAGTGCAG and give its recorded binding signal.
Resp: 3290 fluorescence intensity (a.u.)

====

Target: OsSMF1 (Oryza sativa, UniProt Q6ZLB0 1-436)
Sequence: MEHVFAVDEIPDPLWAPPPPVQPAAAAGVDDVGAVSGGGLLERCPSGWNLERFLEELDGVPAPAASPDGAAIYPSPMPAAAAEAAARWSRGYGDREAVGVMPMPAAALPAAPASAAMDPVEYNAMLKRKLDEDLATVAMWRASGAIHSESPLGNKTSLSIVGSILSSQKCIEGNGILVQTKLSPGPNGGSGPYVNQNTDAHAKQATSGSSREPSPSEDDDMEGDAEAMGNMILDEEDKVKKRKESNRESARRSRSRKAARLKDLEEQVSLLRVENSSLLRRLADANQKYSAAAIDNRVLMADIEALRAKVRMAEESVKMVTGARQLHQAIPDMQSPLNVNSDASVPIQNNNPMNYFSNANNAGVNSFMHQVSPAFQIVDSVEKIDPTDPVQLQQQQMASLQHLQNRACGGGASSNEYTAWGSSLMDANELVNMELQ
Assay: protein-binding microarray (RPBM); PBS, 2% BSA, 51.3 ng/ul salmon testes DNA, 50 uM zinc acetate, 200 nM TF, 25 C, 1 h; high values mean tight binding
Conditions: protein: recombinant; tags: N-terminal polyhistidine and DsRed monomer fusion (pET32a); chain copies: 2; label: CyDye5-dUTP incorporated in the synthesized complementary strand; 3' TTTTT single-stranded linker to array surface; dsDNA, one strand shown
In all, about 39,000 sequences were measured (“fluorescence intensity (a.u.)”: median about 4,300, highest 2% from about 39,000 on). The entries come from a sample that favours the highest values as a whole.
observable: binding signal

CTTCGTCTCCTCCTCCTCCACGTCATCCGCCTCCGCCTCCCGGAGTCACCTAGTGCAG: 26000 fluorescence intensity (a.u.)
TTCATTGACCGAGAACGATAGCACGCATCACATCAGCATCCGGAGTCACCTAGTGCAG: 3250 fluorescence intensity (a.u.)
CTTCTCTTATTGTTTGTGTCATTTTCATTTATGTCCTTGTCGGAGTCACCTAGTGCAG: 3940 fluorescence intensity (a.u.)
AGAAGGTTGGAATTTAGTAAGTTGCAGTTACAAATTCAAGCGGAGTCACCTAGTGCAG: 53200 fluorescence intensity (a.u.)
TTGTTGAACTATAGGGTAGATGTGATATGTAAGAATTGCCCGGAGTCACCTAGTGCAG: 3280 fluorescence intensity (a.u.)

Req: State, for OsSMF1 (Oryza sativa, UniProt Q6ZLB0 1-436), measured binding signal of the sequence listed here: AACAAGTGTGTTGGTGGTGGTGGAAGTTGTTACAGAATTGCGGAGTCACCTAGTGCAG
Resp: 3470 fluorescence intensity (a.u.)

Req: State, for OsSMF1 (Oryza sativa, UniProt Q6ZLB0 1-436), measured binding signal of the sequence listed here: ATCCATAACTATGTAACGTCATAGCCACCCAGCCTCGCTTCGGAGTCACCTAGTGCAG
Resp: 5580 fluorescence intensity (a.u.)

Req: State, for OsSMF1 (Oryza sativa, UniProt Q6ZLB0 1-436), measured binding signal of the sequence listed here: GCTTCGTGGGCCTCTCACTTGAGTCACTGGCACTCCATTCCGGAGTCACCTAGTGCAG
Resp: 3570 fluorescence intensity (a.u.)

Req: State, for OsSMF1 (Oryza sativa, UniProt Q6ZLB0 1-436), measured binding signal of the sequence listed here: GATGTACTCGAGTATCTTCCCCTTCCTAGTTCCTTCCCTTCGGAGTCACCTAGTGCAG
Resp: 13900 fluorescence intensity (a.u.)

====

Target: OsSMF1 (Oryza sativa, UniProt Q6ZLB0 1-436)
Sequence: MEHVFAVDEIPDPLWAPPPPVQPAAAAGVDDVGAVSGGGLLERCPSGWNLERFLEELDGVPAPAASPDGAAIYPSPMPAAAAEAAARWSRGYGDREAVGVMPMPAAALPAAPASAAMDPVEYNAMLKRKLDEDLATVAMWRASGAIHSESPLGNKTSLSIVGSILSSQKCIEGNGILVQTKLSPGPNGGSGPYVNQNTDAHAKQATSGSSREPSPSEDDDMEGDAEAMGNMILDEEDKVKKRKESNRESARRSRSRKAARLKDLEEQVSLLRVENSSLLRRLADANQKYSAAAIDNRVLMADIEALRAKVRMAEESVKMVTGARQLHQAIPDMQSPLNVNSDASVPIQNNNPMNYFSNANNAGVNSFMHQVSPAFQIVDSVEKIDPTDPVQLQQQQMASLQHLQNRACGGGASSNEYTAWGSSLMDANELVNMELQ
Assay: protein-binding microarray (RPBM); PBS, 2% BSA, 51.3 ng/ul salmon testes DNA, 50 uM zinc acetate, 200 nM TF, 25 C, 1 h; high values mean tight binding
Settings: protein: recombinant; tags: N-terminal polyhistidine and DsRed monomer fusion (pET32a); chain copies: 2; label: CyDye5-dUTP incorporated in the synthesized complementary strand; 3' TTTTT single-stranded linker to array surface; dsDNA, one strand shown
In all, about 39,000 sequences were measured (“fluorescence intensity (a.u.)”: median about 4,300, highest 2% from about 39,000 on). Many of the other results were omitted from the sample, so the highest values are more common in it than they were.
# maps each entry to its binding signal

CTGCTCCACGCATTCACCAACGCTCCCTGCGATGTTTTAGCGGAGTCACCTAGTGCAG: 4260 fluorescence intensity (a.u.)
CTCTTTTCCCCATCTCACATACTGTGCCTTGCCTCCATAACGGAGTCACCTAGTGCAG: 65200 fluorescence intensity (a.u.)
CAAACAATATTCTTTTGTGACTAGATCAAGCCGTAGTGTTCGGAGTCACCTAGTGCAG: 3650 fluorescence intensity (a.u.)
GCCGTGCCGTGCCGTGCCGGCCCGCGGGCTCGGCCAGCGGCGGAGTCACCTAGTGCAG: 30700 fluorescence intensity (a.u.)

Now for the sequence whose binding signal we want.
Req: State, for OsSMF1 (Oryza sativa, UniProt Q6ZLB0 1-436), measured binding signal of the sequence listed here: CGGCCCAGCAGGCGAGCGTGACGTGGACCGGTCGTTTCGCCGGAGTCACCTAGTGCAG
Resp: 5650 fluorescence intensity (a.u.)
